Test: in vivo
Set-up: species or system BALB/c nu/nu female mice
Settings: female, BALB/c nu/nu, mouse, iv, 40 pmol, total radioactivity, Tumor-to-liver ratio

# compound, tissue to tissue ratio at 24 h
data = [
    ("CCNC(=O)[C@H](CC(C)C)NC(=O)[C@H](Cc1c[nH]cn1)NC(=O)CN(C)C(=O)[C@@H](NC(=O)[C@H](C)NC(=O)[C@H](Cc1c[nH]c2ccccc12)NC(=O)[C@H](CCC(N)=O)NC(=O)[C@@H](Cc1ccccc1)NC(=O)COCC(=O)Nc1ccc(CNC(=O)CCC(C(=O)O)N2CCN(CC(=O)O)CCN(CC(=O)O)CCN(CC(=O)O)CC2)cc1)C(C)C (stereo partly shown) [[^111In]In-AU-SAR-M1, metal not drawn]", 67),
]

###

Experiment: in vivo
Parameters: species or system BALB/c nu/nu female mice
Details: female, BALB/c nu/nu, mouse, iv, 40 pmol, total radioactivity, Blood uptake
measurement kind: tissue uptake at 24 h (%ID/g)

# compound, units label, numeric readout
measured = [
    ("CCNC(=O)[C@H](CC(C)C)NC(=O)[C@H](Cc1c[nH]cn1)NC(=O)CN(C)C(=O)[C@@H](NC(=O)[C@H](C)NC(=O)[C@H](Cc1c[nH]c2ccccc12)NC(=O)[C@H](CCC(N)=O)NC(=O)[C@@H](Cc1ccccc1)NC(=O)COCC(=O)Nc1ccc(CNC(=O)CCC(C(=O)O)N2CCN(CC(=O)O)CCN(CC(=O)O)CCN(CC(=O)O)CC2)cc1)C(C)C (stereo partly shown) [[^111In]In-AU-SAR-M1, metal not drawn]", "%ID/g", 0.01),
]

###

The entries below come with measured tissue to tissue ratio at 4 h values attached.
Test: in vivo
Parameters: species or system BALB/c nu/nu female mice
Conditions: female, BALB/c nu/nu, mouse, iv, 40 pmol, total radioactivity, Tumor-to-bone ratio

# compound, tissue to tissue ratio at 4 h
data = [
    ("CCNC(=O)[C@H](CC(C)C)NC(=O)[C@H](Cc1c[nH]cn1)NC(=O)CN(C)C(=O)[C@@H](NC(=O)[C@H](C)NC(=O)[C@H](Cc1c[nH]c2ccccc12)NC(=O)[C@H](CCC(N)=O)NC(=O)[C@@H](Cc1ccccc1)NC(=O)COCC(=O)Nc1ccc(CNC(=O)[C@H](CCCNC(=N)N)NC(=O)CCC(C(=O)O)N2CCN(CC(=O)O)CCN(CC(=O)O)CCN(CC(=O)O)CC2)cc1)C(C)C (stereo partly drawn) [[^111In]In-AU-SAR-M2, [^111In]In-[DOTAGA-Arg]AU-SAR-M1, metal not drawn]", 58),
    ("CCNC(=O)[C@H](CC(C)C)NC(=O)[C@H](Cc1c[nH]cn1)NC(=O)CN(C)C(=O)[C@@H](NC(=O)[C@H](C)NC(=O)[C@H](Cc1c[nH]c2ccccc12)NC(=O)[C@H](CCC(N)=O)NC(=O)[C@@H](Cc1ccccc1)NC(=O)COCC(=O)Nc1ccc(CNC(=O)CCC(C(=O)O)N2CCN(CC(=O)O)CCN(CC(=O)O)CCN(CC(=O)O)CC2)cc1)C(C)C (stereo partly drawn) [[^111In]In-AU-SAR-M1, metal not drawn]", 74),
    ("CCNC(=O)[C@H](CC(C)C)NC(=O)[C@H](Cc1c[nH]cn1)NC(=O)CN(C)C(=O)[C@@H](NC(=O)[C@H](C)NC(=O)[C@H](Cc1c[nH]c2ccccc12)NC(=O)[C@H](CCC(N)=O)NC(=O)[C@@H](Cc1ccccc1)NC(=O)COCC(=O)Nc1ccc(CNC(=O)[C@@H](CCCNC(=N)N)NC(=O)CCC(C(=O)O)N2CCN(CC(=O)O)CCN(CC(=O)O)CCN(CC(=O)O)CC2)cc1)C(C)C (stereo partly drawn) [[^111In]In-AU-SAR-M3, [^111In]In-[DOTAGA-DArg]AU-SAR-M1, metal not drawn]", 41),
]

###

Assay: in vivo
Design: species or system BALB/c nu/nu female mice
Conditions: female, BALB/c nu/nu, mouse, iv, 40 pmol, total radioactivity, Small intestines uptake
The entries below come with measured tissue uptake at 4 h values attached.

# compound, tissue uptake at 4 h [%ID/g]
measured = [
    ("CCNC(=O)[C@H](CC(C)C)NC(=O)[C@H](Cc1c[nH]cn1)NC(=O)CN(C)C(=O)[C@@H](NC(=O)[C@H](C)NC(=O)[C@H](Cc1c[nH]c2ccccc12)NC(=O)[C@H](CCC(N)=O)NC(=O)[C@@H](Cc1ccccc1)NC(=O)COCC(=O)Nc1ccc(CNC(=O)CCC(C(=O)O)N2CCN(CC(=O)O)CCN(CC(=O)O)CCN(CC(=O)O)CC2)cc1)C(C)C (stereo partly drawn) [[^111In]In-AU-SAR-M1, metal not drawn]", 0.8),
    ("CCNC(=O)[C@H](CC(C)C)NC(=O)[C@H](Cc1c[nH]cn1)NC(=O)CN(C)C(=O)[C@@H](NC(=O)[C@H](C)NC(=O)[C@H](Cc1c[nH]c2ccccc12)NC(=O)[C@H](CCC(N)=O)NC(=O)[C@@H](Cc1ccccc1)NC(=O)COCC(=O)Nc1ccc(CNC(=O)[C@H](CCCNC(=N)N)NC(=O)CCC(C(=O)O)N2CCN(CC(=O)O)CCN(CC(=O)O)CCN(CC(=O)O)CC2)cc1)C(C)C (stereo partly drawn) [[^111In]In-AU-SAR-M2, [^111In]In-[DOTAGA-Arg]AU-SAR-M1, metal not drawn]", 2.4),
    ("CCNC(=O)[C@H](CC(C)C)NC(=O)[C@H](Cc1c[nH]cn1)NC(=O)CN(C)C(=O)[C@@H](NC(=O)[C@H](C)NC(=O)[C@H](Cc1c[nH]c2ccccc12)NC(=O)[C@H](CCC(N)=O)NC(=O)[C@@H](Cc1ccccc1)NC(=O)COCC(=O)Nc1ccc(CNC(=O)[C@@H](CCCNC(=N)N)NC(=O)CCC(C(=O)O)N2CCN(CC(=O)O)CCN(CC(=O)O)CCN(CC(=O)O)CC2)cc1)C(C)C (stereo partly drawn) [[^111In]In-AU-SAR-M3, [^111In]In-[DOTAGA-DArg]AU-SAR-M1, metal not drawn]", 0.2),
]

###

Test: in vivo
Set-up: species or system BALB/c nu/nu female mice
Details: female, BALB/c nu/nu, mouse, iv, 40 pmol, total radioactivity, Spleen uptake

# compound, tissue uptake at 24 h (%ID/g)
rows = [
    ("CCNC(=O)[C@H](CC(C)C)NC(=O)[C@H](Cc1c[nH]cn1)NC(=O)CN(C)C(=O)[C@@H](NC(=O)[C@H](C)NC(=O)[C@H](Cc1c[nH]c2ccccc12)NC(=O)[C@H](CCC(N)=O)NC(=O)[C@@H](Cc1ccccc1)NC(=O)COCC(=O)Nc1ccc(CNC(=O)CCC(C(=O)O)N2CCN(CC(=O)O)CCN(CC(=O)O)CCN(CC(=O)O)CC2)cc1)C(C)C (stereo partly shown) [[^111In]In-AU-SAR-M1, metal not drawn]", 0.1),
]

###

Assay: in vivo
Design: species or system BALB/c nu/nu female mice
Conditions: female, BALB/c nu/nu, mouse, iv, 40 pmol, total radioactivity, Carcass uptake

# compound, units label, tissue uptake dose at 4 h
measured = [
    ("CCNC(=O)[C@H](CC(C)C)NC(=O)[C@H](Cc1c[nH]cn1)NC(=O)CN(C)C(=O)[C@@H](NC(=O)[C@H](C)NC(=O)[C@H](Cc1c[nH]c2ccccc12)NC(=O)[C@H](CCC(N)=O)NC(=O)[C@@H](Cc1ccccc1)NC(=O)COCC(=O)Nc1ccc(CNC(=O)[C@H](CCCNC(=N)N)NC(=O)CCC(C(=O)O)N2CCN(CC(=O)O)CCN(CC(=O)O)CCN(CC(=O)O)CC2)cc1)C(C)C (stereo partly drawn) [[^111In]In-AU-SAR-M2, [^111In]In-[DOTAGA-Arg]AU-SAR-M1, metal not drawn]", "%ID", 4),
    ("CCNC(=O)[C@H](CC(C)C)NC(=O)[C@H](Cc1c[nH]cn1)NC(=O)CN(C)C(=O)[C@@H](NC(=O)[C@H](C)NC(=O)[C@H](Cc1c[nH]c2ccccc12)NC(=O)[C@H](CCC(N)=O)NC(=O)[C@@H](Cc1ccccc1)NC(=O)COCC(=O)Nc1ccc(CNC(=O)CCC(C(=O)O)N2CCN(CC(=O)O)CCN(CC(=O)O)CCN(CC(=O)O)CC2)cc1)C(C)C (stereo partly drawn) [[^111In]In-AU-SAR-M1, metal not drawn]", "%ID", 4),
    ("CCNC(=O)[C@H](CC(C)C)NC(=O)[C@H](Cc1c[nH]cn1)NC(=O)CN(C)C(=O)[C@@H](NC(=O)[C@H](C)NC(=O)[C@H](Cc1c[nH]c2ccccc12)NC(=O)[C@H](CCC(N)=O)NC(=O)[C@@H](Cc1ccccc1)NC(=O)COCC(=O)Nc1ccc(CNC(=O)[C@@H](CCCNC(=N)N)NC(=O)CCC(C(=O)O)N2CCN(CC(=O)O)CCN(CC(=O)O)CCN(CC(=O)O)CC2)cc1)C(C)C (stereo partly drawn) [[^111In]In-AU-SAR-M3, [^111In]In-[DOTAGA-DArg]AU-SAR-M1, metal not drawn]", "%ID", 2.1),
]
